Reference source: paper PMC12040169

method.description: in vitro
reported.conditions: human, hela cells, % viability
Record form. Attribute: viability at 28.5 h, 10 µM. Fill in for each entry.
Give bare numbers, in %.

Consider the worked cases shown below.
>  <molecule>
COc1ccc(C(=O)c2ccc(N3CCN(C4CC(=O)NC4=O)CC3)cc2)cc1F (stereo not shown)

>  <viability at 28.5 h, 10 µM, %>
94.2

$$$$
>  <molecule>
Cc1cc2nc(-c3cc(NC(=O)c4ccc(C)c([N+](=O)[O-])c4)ccc3O)oc2cc1C

>  <viability at 28.5 h, 10 µM, %>
89.1

$$$$
>  <molecule>
CN(C)c1ccc(CCNC(=O)c2c3c(nn2C)CCCC3)cc1

>  <viability at 28.5 h, 10 µM, %>
96.4

$$$$

Proceed to the following item.
input: Any idea what viability at 28.5 h, 10 µM was measured for O=C(Cc1c[nH]c2ccccc12)N1CCC2(CCCN(C(=O)c3c(F)cccc3F)C2)C1 (stereo not shown) ?
output: 85.8

###

Give measured viability at 28.5 h, 10 µM for each item. Keep answers brief.
method.description: in vitro
reported.conditions: human, hela cells, % viability
One number for each entry, in %.

>  <compound>
N#Cc1nc(-c2ccccc2F)oc1NCCCN1CCOCC1

>  <unit.name>
%

>  <viability at 28.5 h, 10 µM>
107

$$$$
>  <compound>
CN(C)S(=O)(=O)c1ccc(C(=O)Nc2ccc(-c3ccccc3)cc2)cc1

>  <unit.name>
%

>  <viability at 28.5 h, 10 µM>
96.2

$$$$
>  <compound>
O=C(CNC(=O)C1CC=CCC1C(=O)O)Nc1ccc(N2CCCCCC2)cc1 (stereo not shown)

>  <unit.name>
%

>  <viability at 28.5 h, 10 µM>
90.8

$$$$

Would you mind giving viability at 28.5 h, 10 µM for every compound in the list below?
1. O=C(O)CCNc1ncnc2ccccc12
2. CSc1nc2sc3c(c2c(=O)n1-c1ccccc1C)CC(C)(C)OC3
3. O=C(COc1ccc2oc3c(c2c1)CCCC3)Nc1ccncc1
4. CC(C)(C)NC(=O)NC1CCC2(CC1)CC(=O)c1ccccc1O2 (stereo not shown)
5. CN1CCN(C(=O)c2ccc(Cl)cc2)CC1
6. Nn1cnn2c(SCc3ccc(Cl)cc3)nnc12
7. NC(=O)C1CCN(C(=O)CCCSc2nc(-c3ccco3)cc(C(F)(F)F)n2)CC1

output:
1: 99.4; 2: 99.1; 3: 100; 4: 109; 5: 104; 6: 106; 7: 98.5

###

method.description: in vitro
reported.conditions: human, hela cells, % viability
property.measured: viability at 28.5 h, 10 µM (%)
Numbers only, in %.

Hello, I would appreciate it if you could give viability at 28.5 h, 10 µM for each entry below.
1. CCc1nc2c(OCCOC)cccn2c1N(CCOC)C(C)=O [CBK147845]
2. CCn1c2cc(C)oc2c2cn[nH]c(=O)c21 [CBK284230]

output:
1: 97.4; 2: 76.1

Provide viability at 28.5 h, 10 µM for all items below, preserving their order.
1. Cc1nc(Nc2ccc(Cl)cc2)nc(Oc2ccccc2)n1 [CBK003915]
2. O=C(c1nc2ccccn2c1CN1CCCC(O)C1)N1CCOCC1 (stereo not drawn) [CBK307237]
3. O=C(c1cc(-c2ccccn2)n[nH]1)N1CCC(c2ccccc2)C1 (stereo not drawn) [CBK281852]
4. CN(C/C=C/c1ccccc1[N+](=O)[O-])CCc1ccccn1 [CBK261890]
5. CCCNC(=O)CN1C(=O)N2CCCN=C2c2ccc(Cl)cc21 [CBK284389]
6. O=C1NC(=O)c2c(NC(=O)C3CCCCC3)cccc21 [CBK019837]

output:
1: 101; 2: 88.4; 3: 91.9; 4: 92.5; 5: 82.8; 6: 88.3

Items follow; give viability at 28.5 h, 10 µM for each.
1. CCOC(=O)C1(Cc2ccccc2-c2ccncc2)CCNCC1 [CBK282297]
2. CCOC(=O)NC(=S)NC(=O)C(C)(C)C [CBK020037]
3. Fc1ccc(Oc2nccnc2N2CCN(Cc3ccc(Cl)c(Cl)c3)CC2)cc1 [CBK083007T]

output:
88.8
100
92.3
